Molecular target: Proto-oncogene tyrosine-protein kinase ROS (Homo sapiens, UniProt P08922)
Sequence (P08922 whole entry): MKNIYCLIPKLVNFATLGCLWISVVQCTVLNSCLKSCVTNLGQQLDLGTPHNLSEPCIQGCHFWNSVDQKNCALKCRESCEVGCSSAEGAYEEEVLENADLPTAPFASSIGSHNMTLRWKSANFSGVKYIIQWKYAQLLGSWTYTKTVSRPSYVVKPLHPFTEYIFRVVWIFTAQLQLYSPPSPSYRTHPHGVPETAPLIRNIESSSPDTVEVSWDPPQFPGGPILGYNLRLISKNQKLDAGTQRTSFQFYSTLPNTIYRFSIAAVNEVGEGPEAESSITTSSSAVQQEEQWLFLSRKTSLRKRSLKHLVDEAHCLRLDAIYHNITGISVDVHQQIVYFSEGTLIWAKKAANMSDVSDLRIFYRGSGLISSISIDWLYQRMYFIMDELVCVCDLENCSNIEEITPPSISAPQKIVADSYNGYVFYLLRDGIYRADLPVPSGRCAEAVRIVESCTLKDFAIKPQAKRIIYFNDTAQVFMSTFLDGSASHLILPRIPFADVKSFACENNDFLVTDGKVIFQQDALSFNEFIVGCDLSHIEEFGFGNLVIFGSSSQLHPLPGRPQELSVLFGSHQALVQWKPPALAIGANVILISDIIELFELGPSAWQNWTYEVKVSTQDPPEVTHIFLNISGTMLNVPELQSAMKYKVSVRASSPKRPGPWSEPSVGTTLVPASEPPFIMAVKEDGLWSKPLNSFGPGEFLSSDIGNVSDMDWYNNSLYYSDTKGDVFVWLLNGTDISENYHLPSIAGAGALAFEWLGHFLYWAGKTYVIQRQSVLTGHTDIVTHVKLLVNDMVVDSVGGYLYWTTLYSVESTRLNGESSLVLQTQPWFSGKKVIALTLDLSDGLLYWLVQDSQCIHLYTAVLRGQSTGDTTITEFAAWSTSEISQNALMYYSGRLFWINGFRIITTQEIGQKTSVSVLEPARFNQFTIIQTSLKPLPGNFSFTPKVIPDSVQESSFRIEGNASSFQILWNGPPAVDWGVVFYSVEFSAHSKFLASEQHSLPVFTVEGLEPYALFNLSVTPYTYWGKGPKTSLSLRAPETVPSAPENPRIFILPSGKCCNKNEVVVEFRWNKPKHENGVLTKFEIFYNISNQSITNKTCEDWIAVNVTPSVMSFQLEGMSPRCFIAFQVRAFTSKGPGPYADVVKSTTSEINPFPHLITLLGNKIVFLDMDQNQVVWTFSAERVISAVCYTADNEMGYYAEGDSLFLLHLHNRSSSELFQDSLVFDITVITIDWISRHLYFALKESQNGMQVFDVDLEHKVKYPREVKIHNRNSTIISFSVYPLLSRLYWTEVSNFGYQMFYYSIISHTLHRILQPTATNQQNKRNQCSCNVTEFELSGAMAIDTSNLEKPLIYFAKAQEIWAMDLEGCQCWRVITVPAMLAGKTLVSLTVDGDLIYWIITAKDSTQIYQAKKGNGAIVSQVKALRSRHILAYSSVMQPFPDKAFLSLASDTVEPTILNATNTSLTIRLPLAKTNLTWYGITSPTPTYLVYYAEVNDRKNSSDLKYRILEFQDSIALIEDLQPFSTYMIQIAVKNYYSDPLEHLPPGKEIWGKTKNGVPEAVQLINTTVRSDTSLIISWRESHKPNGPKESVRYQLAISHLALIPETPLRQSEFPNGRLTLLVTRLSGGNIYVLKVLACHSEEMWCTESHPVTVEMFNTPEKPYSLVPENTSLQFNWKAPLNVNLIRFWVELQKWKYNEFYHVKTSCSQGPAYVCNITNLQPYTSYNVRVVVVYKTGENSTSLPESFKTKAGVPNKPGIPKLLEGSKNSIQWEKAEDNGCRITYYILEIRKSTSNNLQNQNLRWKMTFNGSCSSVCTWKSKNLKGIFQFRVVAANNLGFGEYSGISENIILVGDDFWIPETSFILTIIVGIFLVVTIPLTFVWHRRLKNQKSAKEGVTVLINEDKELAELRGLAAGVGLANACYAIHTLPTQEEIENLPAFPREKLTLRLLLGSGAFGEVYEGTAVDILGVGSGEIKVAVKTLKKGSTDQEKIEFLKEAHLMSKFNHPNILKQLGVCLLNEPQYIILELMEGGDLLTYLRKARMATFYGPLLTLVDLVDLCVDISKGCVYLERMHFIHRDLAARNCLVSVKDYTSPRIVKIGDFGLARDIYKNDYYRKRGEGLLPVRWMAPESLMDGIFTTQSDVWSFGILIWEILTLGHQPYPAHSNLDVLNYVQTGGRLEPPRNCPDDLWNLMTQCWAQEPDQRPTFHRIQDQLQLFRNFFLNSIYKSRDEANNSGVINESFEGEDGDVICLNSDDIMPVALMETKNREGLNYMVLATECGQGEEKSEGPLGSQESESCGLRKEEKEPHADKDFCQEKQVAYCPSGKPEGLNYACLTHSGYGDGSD
reported metric: IC50
Give the number first and the unit second.

Req: Need IC50 of O=C1NC2(CC2)COc2ncc(F)cc2[C@H]2COCCN2c2ccn3ncc1c3n2 , thanks.
Resp: 1 nM

----------
Assay: Cmax in male Sprague-Dawley rat at 10 mg/kg, po measured up to 24 hrs by LC-MS/MS analysis
Format: ADME, organism-based
Set-up: route oral, dose 10 mg/kg, time <=24
Settings: in vivo
reported metric: Cmax (µM)
Lab book: enter the figure in µM, no units written.

Req: Need Cmax of O=C1NC2(CC2)COc2ncc(F)cc2[C@H]2COCCN2c2ccn3ncc1c3n2 , thanks.
Resp: 6.38

----------
Assay: Protein binding in human plasma assessed as unbound fraction by LC-MS/MS based equilibrium dialysis method
Assay type: ADME, cell-free
Parameter fraction unbound: see the listing below.

O=C1NC2(CC2)COc2ncc(F)cc2[C@H]2CNCCN2c2ccn3ncc1c3n2	0.36
C[C@@H]1CCc2ncc(F)cc2[C@H]2CCCN2c2ccn3ncc(c3n2)C(=O)N1 [SELITRECTINIB]	0.34
O=C1NC2(CC2)COc2ncc(F)cc2[C@H]2COCCN2c2ccn3ncc1c3n2	0.16
C[C@H]1CNC(=O)c2cnn3ccc(nc23)N[C@H](C)c2cc(F)ccc2O1 [REPOTRECTINIB]	0.05

Here is the next item to consider.
Req: Need fraction unbound of O=C1NC2(CC2)COc2ncc(F)cc2[C@H]2CCCCN2c2ccn3ncc1c3n2 , thanks.
Resp: 0.02

----------
Parameter pIC50: see the listing below.
System: BaF3
Experiment: Cytotoxicity against mouse BaF3 cells transfected with SLC34A2-Ros1 assessed as reduction in cell viability by MTT assay
Type: functional, cell-based
# log scale: pIC50 equals minus log10 of the concentration in mol/L

O=C1NC2(CC2)COc2ncc(F)cc2[C@H]2CCCCN2c2ccn3ncc1c3n2	7.90
C[C@H]1CNC(=O)c2cnn3ccc(nc23)N[C@H](C)c2cc(F)ccc2O1 [REPOTRECTINIB]	8.66
C[C@@H]1CCc2ncc(F)cc2[C@H]2CCCN2c2ccn3ncc(c3n2)C(=O)N1 [SELITRECTINIB]	7.44

Here is the next item to consider.
Req: Need pIC50 of O=C1NC2(CC2)COc2ncc(F)cc2[C@H]2COCCN2c2ccn3ncc1c3n2 , thanks.
Resp: 8.64

----------
Biological target: Cytochrome P450 2D6 (Homo sapiens)
Sequence (P10635 whole entry): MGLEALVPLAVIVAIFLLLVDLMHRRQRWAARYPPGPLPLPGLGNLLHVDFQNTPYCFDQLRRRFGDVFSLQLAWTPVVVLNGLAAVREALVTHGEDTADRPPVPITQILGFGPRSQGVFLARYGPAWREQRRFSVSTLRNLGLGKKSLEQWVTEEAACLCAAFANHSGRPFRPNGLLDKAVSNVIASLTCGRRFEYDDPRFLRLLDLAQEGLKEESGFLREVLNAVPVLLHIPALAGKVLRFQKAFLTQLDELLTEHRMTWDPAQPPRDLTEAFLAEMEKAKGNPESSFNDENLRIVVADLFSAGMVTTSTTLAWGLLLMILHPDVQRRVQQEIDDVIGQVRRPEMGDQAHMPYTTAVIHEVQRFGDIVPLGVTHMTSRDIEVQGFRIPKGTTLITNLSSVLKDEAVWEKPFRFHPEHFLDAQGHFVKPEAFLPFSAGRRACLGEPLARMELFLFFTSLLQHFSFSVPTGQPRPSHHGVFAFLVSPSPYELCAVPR
reported metric: IC50 (µM)
Lab book: enter the figure in µM, no units written.

Req: Checklist item: IC50 tested on Cytochrome P450 2D6 (Homo sapiens), entry C[C@H]1CNC(=O)c2cnn3ccc(nc23)N[C@H](C)c2cc(F)ccc2O1 , value?
Resp: 28.5

----------
Experiment: Half life in female Sprague-Dawley rat at 2 mg/kg, iv measured up to 24 hrs by LC-MS/MS analysis
Assay type: ADME, organism-based
Conditions: in vivo
reported metric: half-life (h)
Lab book: enter the figure in h, no units written.

Req: Need half-life of O=C1NC2(CC2)COc2ncc(F)cc2[C@H]2COCCN2c2ccn3ncc1c3n2 , thanks.
Resp: 2.21

----------
Assay: Apparent permeability across apical to basolateral side in human Caco-2 cells incubated for 2 hrs by LC-MS/MS analysis
Type: ADME, cell-based
reported metric: Papp A→B at 2 h
Give the number first and the unit second.

A selection of reference data follows.
O=C1NC2(CC2)COc2ncc(F)cc2[C@H]2CNCCN2c2ccn3ncc1c3n2	3.9 ×10⁻⁶ cm/s
O=C1NC2(CC2)COc2ncc(F)cc2[C@H]2COCCN2c2ccn3ncc1c3n2	12 ×10⁻⁶ cm/s
C[C@H]1CNC(=O)c2cnn3ccc(nc23)N[C@H](C)c2cc(F)ccc2O1	0.9 ×10⁻⁶ cm/s
O=C1NC2(CC2)COc2ncc(F)cc2[C@H]2CCCCN2c2ccn3ncc1c3n2	16.3 ×10⁻⁶ cm/s

Req: Need Papp A→B at 2 h of C[C@@H]1CCc2ncc(F)cc2[C@H]2CCCN2c2ccn3ncc(c3n2)C(=O)N1 , thanks.
Resp: 8.4 ×10⁻⁶ cm/s
